Collected pIC50 for POLRMT (Homo sapiens (Human)) across several studies; compounds listed below.
One number for each entry, as −log10 of the molar value.

CCCOc1ccc2c(-c3ccccc3)cc(=O)oc2c1	5.40
CC[C@@H](Nc1ccc2c(-c3ccccc3C)cc(=O)oc2c1)C(N)=O	6.00
Cc1ccccc1-c1cc(=O)oc2nc(N3CCOCC3C)ccc12 (single isomer, unassigned)	6.40
C[C@@H](Cc1ccc2c(-c3ccc(F)cc3Cl)cc(=O)oc2c1)C(=O)N(C)C	6.10
COCC1CN(C(=O)c2ccc3c(-c4ccccc4C)cc(=O)oc3c2)C1	4.74
CC(=O)N1CC[C@H](Oc2ccc3c(-c4ccccc4C)cc(=O)oc3c2)C1	4.55

Parameter requested: pIC50. Apply to each item below.
1. Cc1ccccc1-c1cc(=O)oc2cc(C(=O)NC3CCCC3)ccc12
2. Cc1ccccc1-c1cc(=O)oc2cc(N(C)CC(=O)NS(C)(=O)=O)ccc12
3. COCC(Oc1ccc2c(-c3ccc(F)cc3Cl)cc(=O)oc2c1)C(=O)O (stereo not shown)
4. COC[C@@H](C(=O)N1CCC[C@H](C(=O)O)C1)N(C)c1ccc2c(-c3ccccc3C)cc(=O)oc2c1 (single isomer, unassigned)

*A*
1. 5.70
2. 5.15
3. 5.52
4. 6.52

# batch: return pIC50 for each of the 6 compounds below
1. Cc1ccccc1-c1cc(=O)oc2cc([C@@H]3C[C@H]3C(N)=O)ccc12 (relative stereo)
2. Cc1ccccc1-c1cc(=O)oc2cc(N(C)CC(=O)OC(C)C)ccc12
3. COC[C@@H]1CCN(C(=O)c2ccc3c(-c4ccccc4C)cc(=O)oc3c2)C1
4. Cc1ccccc1-c1cc(=O)oc2cc(CC(C)C(=O)N3CCCCC3)ccc12 (single isomer, unassigned)
5. CCOC(=O)[C@H]1CCCN(C(=O)C(C)Cc2ccc3c(-c4ccccc4C)cc(=O)oc3c2)C1 (single isomer, unassigned)
6. Cc1cccc(C)c1-c1cc(=O)oc2nc(N3CCC[C@@H]3C(=O)O)ccc12

*A*
1: 6.05; 2: 7.70; 3: 4.35; 4: 7.10; 5: 7.05; 6: 7.00

----------
The entries below pair compounds with IC50 values for POLRMT (Homo sapiens (Human)), as found in several publications.
Numbers only, in µM.

CCN(C)C(=O)c1ccc2c(-c3ccc(F)cc3Cl)cc(=O)oc2c1	19
Cc1ccccc1-c1cc(=O)oc2cc(C(C)N(C)C)ccc12 (centres unmarked)	44
CN(CC(=O)O)c1ccc2c(-c3ccc(F)cc3Cl)cc(=O)oc2n1	5

Hi there! I need IC50 for each item below, if you can.
1. Cc1ccccc1-c1cc(=O)oc2cc(C(=O)N(C)C)ccc12
2. COC[C@@H](Oc1ccc2c(-c3ccccc3C)cc(=O)oc2c1)C(=O)N(C)C

*A*
1: 2; 2: 0.1

----------
Recorded pIC50 for compounds tested on UniProtKB O00411, drawn from a number of studies.
One number for each entry, as −log10 of the molar value.

For the 4 compounds below, give their pIC50 values.
1. C[C@H](C(=O)N1CCCCC1)N(C)c1ccc2c(-c3ccc(F)cc3Cl)cc(=O)oc2c1
2. COC1CCN(c2ccc3c(-c4ccccc4C)cc(=O)oc3n2)C1 (single isomer, unassigned)
3. CCCOc1ccc2c(-c3cnccc3C(F)(F)F)cc(=O)oc2c1
4. Cc1ccccc1-c1cc(=O)oc2cc(N(C)CCC(=O)O)ccc12

*A*
1. 7.30
2. 5.52
3. 4.64
4. 7.00

----------
Multi-source literature compilation: IC50 on POLRMT (Homo sapiens (Human), UniProt O00411).
Answers are plain numbers, in nM.

Cc1cccc(C)c1-c1cc(=O)oc2nc(N(C)CC(N)=O)ccc12	200
CN(C)c1ccc2c(-c3ccc(F)cc3Cl)cc(=O)oc2c1	400
Cc1ccccc1-c1cc(=O)oc2cc(CNC(=O)N3CCC[C@H](C(=O)O)C3)ccc12	2000
Cc1ccccc1-c1cc(=O)oc2cc(OCCO)ccc12	2000

# ---- query molecule ----
Value of IC50 reported for the molecule CC(C(N)=O)N(C)c1ccc2c(-c3ccccc3)cc(=O)oc2c1 (centres unmarked) is 300

----------
Please find below pIC50 data on POLRMT (Homo sapiens (Human), UniProt O00411) compiled from the literature.
Answers are plain numbers, as −log10 of the molar value.

Here is how some compounds turned out for pIC50.
CN(C)C(=O)N(C)Cc1ccc2c(-c3ccc(F)cc3Cl)cc(=O)oc2c1	5.52
Cc1ccccc1-c1cc(=O)oc2nc(N3CC4(COC4)C3)ccc12	4.07
COCc1cc(C)c2c(-c3ccccc3C)cc(=O)oc2c1	6.30

Note: attention shifts to another entry.
Sample "Cc1ccccc1-c1cc(=O)oc2cc(Oc3ccccc3)ccc12" ; pIC50 observed: 6.22

----------
Record set: pIC50 | POLRMT (Homo sapiens (Human)) | literature, multiple sources.
One number for each entry, as −log10 of the molar value.

Illustrative cases are given below, each with its answer.
Cc1ccccc1-c1cc(=O)oc2cc(CC(C)C(=O)N3CCC[C@H](S(N)(=O)=O)C3)ccc12 (single isomer, unassigned)	6.52
CN(CC(N)=O)c1ccc2c(-c3ccc(F)cc3Cl)cc(=O)oc2n1	5.70
Cc1ccccc1-c1cc(=O)oc2nc(N(C)CCC(=O)O)ccc12	5.15

Kindly give each listed record's pIC50.
1. Cc1ccccc1-c1cc(=O)oc2cc(OCCN(C)C)ccc12
2. C[C@@H](Nc1ccc2c(-c3ccc(F)cc3Cl)cc(=O)oc2c1)C(=O)N1CCCCC1
3. Cc1ccccc1-c1cc(=O)oc2cc(NC(C)C(N)=O)ccc12 (single isomer, unassigned)
4. CNC(=O)CCOc1ccc2c(-c3ccccc3C)cc(=O)oc2c1
5. Cc1ccccc1-c1cc(=O)oc2cc(CC(C)C(=O)N3CCC[C@H](C(N)=O)C3)ccc12 (single isomer, unassigned)

*A*
1: 4.03; 2: 7.00; 3: 6.10; 4: 5.15; 5: 7.00

----------
Here, molecules appear alongside pIC50 reported for POLRMT (Homo sapiens (Human), UniProt O00411) in the literature.
Answers are plain numbers, as −log10 of the molar value.

Worked examples follow.
Cc1ccccc1-c1cc(=O)oc2nc(N3CCN(C)C(=O)C3)ccc12	4.33
CCCOc1ccc2c(-c3ccccc3C(F)(F)F)cc(=O)oc2c1	6.00
Cc1ccccc1-c1cc(=O)oc2cc(NCc3nnn[nH]3)ccc12	5.52
Cc1ccccc1-c1cc(=O)oc2cc(OCC3CCCCO3)ccc12 (single isomer, unassigned)	5.52
Cc1ccccc1-c1cc(=O)oc2cc([C@@H]3C[C@H]3C(=O)N(C)C)ccc12 (relative stereo)	5.15
Cc1ccccc1-c1cc(=O)oc2nc(N3CCC(C)(O)C3)ccc12 (racemic)	6.52

Consider now this further molecule.
So, "CCNC(=O)[C@@H](C)Nc1ccc2c(-c3ccc(F)cc3Cl)cc(=O)oc2c1" ? Its pIC50 was 5.52

----------
Several reports have described pIC50 for POLRMT (Homo sapiens (Human)); a selection of those results is presented here.
Give bare numbers, as −log10 of the molar value.

Take a look at these entries with their results.
CNc1ccc2c(-c3ccc(F)cc3Cl)cc(=O)oc2c1	6.40
C[C@@H](Oc1ccc2c(-c3ccc(F)cc3Cl)cc(=O)oc2c1)C(=O)N1CCS(=O)(=O)CC1	6.30
Cc1ccccc1-c1cc(=O)oc2cc(CO)ccc12	5.00

Need pIC50 for each of these molecules.
1. CC(=O)N(C)[C@H]1CCCN(C(=O)c2ccc3c(-c4ccccc4C)cc(=O)oc3c2)C1
2. CCOC(=O)C(C)Cc1ccc2c(-c3ccccc3C)cc(=O)oc2c1 (stereo not drawn)
3. COC(=O)[C@@H](C)N(C)c1ccc2c(-c3ccc(F)cc3Cl)cc(=O)oc2n1
4. COCC1CCN(c2ccc3c(-c4ccccc4C)cc(=O)oc3n2)C1 (racemic)

*A*
4.14
6.52
6.70
6.05

For every item below, please supply its pIC50.
1. Cc1cccc(C)c1-c1cc(=O)oc2nc(N3CCC[C@H]3C(=O)O)ccc12
2. CNC(=O)CCN(C)c1ccc2c(-c3ccc(F)cc3Cl)cc(=O)oc2c1

*A*
6.40
5.70

----------
Record: compiled IC50 on POLRMT (Homo sapiens (Human), UniProt O00411) from multiple reports.
In plain terms, low IC50, meaning strictly below 900 nM, gives class 1, and everything else gives class 0.

Check out these entries, answers already filled in.
COCCN(C)c1ccc2c(-c3ccccc3C)cc(=O)oc2n1	class 0
CNC(=O)C(COC)Oc1ccc2c(-c3ccccc3Cl)cc(=O)oc2c1 (single isomer, unassigned)	class 1
CC[C@H](Nc1ccc2c(-c3ccccc3C)cc(=O)oc2c1)C(N)=O	class 1
COCC(Oc1ccc2c(-c3ccc(F)cc3Cl)cc(=O)oc2c1)C(N)=O (single isomer, unassigned)	class 0
CC(=O)N(C)CC1CCN(C(=O)c2ccc3c(-c4ccccc4C)cc(=O)oc3c2)C1 (stereo not drawn)	class 0

*Q* Decide: IC50 of "Cc1ccccc1-c1cc(=O)oc2cc(N(C)C)ccc12" strictly below 900 nM?
*A* class 1

*Q* Input Cc1ccccc1-c1cc(=O)oc2cc(CN(C)C(=O)C3CCC(C(=O)O)CC3)ccc12 (stereo not drawn) ; condition: IC50 strictly below 900 nM. Does it hold?
*A* class 1
